Every entry's value here was drawn from ChEMBL document CHEMBL4024760.

Biological target: beta-glucuronidase (Homo sapiens, UniProt P08236)
Sequence (P08236 whole entry): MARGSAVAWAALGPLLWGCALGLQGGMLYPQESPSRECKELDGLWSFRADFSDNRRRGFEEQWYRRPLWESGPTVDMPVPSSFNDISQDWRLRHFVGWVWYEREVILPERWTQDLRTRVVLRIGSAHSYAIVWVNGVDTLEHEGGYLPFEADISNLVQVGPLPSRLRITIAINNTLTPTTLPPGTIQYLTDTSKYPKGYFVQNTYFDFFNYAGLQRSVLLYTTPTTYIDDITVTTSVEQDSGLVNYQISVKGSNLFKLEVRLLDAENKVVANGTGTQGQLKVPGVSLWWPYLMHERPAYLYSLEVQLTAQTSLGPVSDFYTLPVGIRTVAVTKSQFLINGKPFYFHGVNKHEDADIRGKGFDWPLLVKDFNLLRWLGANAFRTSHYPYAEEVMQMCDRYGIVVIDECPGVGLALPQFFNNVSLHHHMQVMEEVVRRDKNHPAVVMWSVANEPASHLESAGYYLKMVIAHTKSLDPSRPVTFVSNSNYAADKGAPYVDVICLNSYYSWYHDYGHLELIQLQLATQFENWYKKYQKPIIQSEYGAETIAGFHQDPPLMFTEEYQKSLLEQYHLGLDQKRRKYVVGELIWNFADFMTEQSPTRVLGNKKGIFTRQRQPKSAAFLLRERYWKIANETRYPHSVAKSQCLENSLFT
Experiment: Inhibition of N-terminal His-tagged human beta-glucuronidase expressed in Escherichia coli BL21 (DE3) assessed as residual activity using pNPG as substrate at 10 uM preincubated for 30 mins followed by substrate addition measured after 1 hr relative to control
Conditions: probe pNPG, read-out: Activity
quantity: activity at 1 h, 10 µM (%)
Give the quantity in %, number only.

Known results for compounds:
{"lineNotation": "Nc1n[nH]c2c1c(Nc1ccc(Cl)cc1)nc1ccc(Br)cc12", "activity at 1 h, 10 µM, %": 107}
{"lineNotation": "COc1cc(/C=C2\\CN(C(=O)CN(C)C)C/C(=C\\c3cc(OC)c(OC)c(OC)c3)C2=O)cc(OC)c1OC", "activity at 1 h, 10 µM, %": 92.4}
{"lineNotation": "O=C1c2ccccc2-c2c(N3CCC(O)CC3)nc3ccccc3c21", "activity at 1 h, 10 µM, %": 80.6}
{"lineNotation": "Nc1n[nH]c2c1c(Nc1ccccc1O)nc1ccccc12", "activity at 1 h, 10 µM, %": 85.6}

Please look up its activity at 1 h, 10 µM: `O=C1NC(=O)/C(=C\c2ccc3cc(F)ccc3n2)S1` 88.9

Data request, read-out activity at 1 h, 10 µM, for `Nc1n[nH]c2c1c(O)nc1ccccc12` 83

Give the measured activity at 1 h, 10 µM of `CCOC(=O)CSc1nc2ccccc2c2sc(C(=O)OCC)c(N)c12` . 108

Would you kindly share the measured activity at 1 h, 10 µM for `O=C(O)CN1C(=O)S/C(=C/c2ccc3cc(F)ccc3n2)C1=O` ? 85.9

Sample `Cc1ccc(Nc2nc3ccc(Cl)cc3c3[nH]nc(N)c23)cc1` — what was its activity at 1 h, 10 µM? 91.5

Would you kindly share the measured activity at 1 h, 10 µM for `c1ccc2c(c1)c1nonc1c1ccoc21` ? 82.7

Please report the recorded activity at 1 h, 10 µM for `Nc1n[nH]c2c1c(Nc1ccc(O)cc1)nc1ccccc12` . 106

###

activity at 1 h, 10 µM overview
Biological target: UniProt:P08236
Experiment: Inhibition of N-terminal His-tagged human beta-glucuronidase expressed in Escherichia coli BL21 (DE3) assessed as residual activity using pNPG as substrate at 10 uM preincubated for 30 mins followed by substrate addition measured after 1 hr relative to control
Conditions: probe pNPG, read-out: Activity
The figure you give is taken to be in %; do not add the unit.

Worked cases, activity at 1 h, 10 µM given:
{"compound": "Fc1ccc(-c2cc(-c3ccc4cc(F)ccc4n3)n(-c3ccccc3)n2)cc1", "activity at 1 h, 10 µM (%)": 88.9}
{"compound": "Nc1n[nH]c2c1cnc1ccccc12", "activity at 1 h, 10 µM (%)": 79.4}
{"compound": "O=C1S/C(=C/c2ccc3cc(F)ccc3n2)C(=O)N1CCN1CCCCC1", "activity at 1 h, 10 µM (%)": 96.5}
{"compound": "COc1ccc(-c2cc3ccccc3nc2C2CC(c3cc(OC)c(OC)c(OC)c3)=NN2C(N)=S)cc1 (stereo unspecified)", "activity at 1 h, 10 µM (%)": 89.5}
{"compound": "CN(C)CCCN1C(=O)S/C(=C/c2ccc3cc(F)ccc3n2)C1=O", "activity at 1 h, 10 µM (%)": 80.2}
{"compound": "Nc1n[nH]c2c1c(Nc1ccc(C(=O)O)cc1)nc1ccccc12", "activity at 1 h, 10 µM (%)": 102}

Look up activity at 1 h, 10 µM: `Nc1n[nH]c2c1c(Nc1ccc(F)cc1)nc1ccccc12` 101
